Method Description: method code SF, from Hansch, C. & Leo, A. (1987). Log P database [Dataset]. Pomona College Medicinal Chemistry Project.
Residues, ends and D or L forms follow the SMILES beside them. *: point of attachment. Cbz = O=C(OCc1ccccc1)*
Label Not satisfied if logP falls below 2; label Satisfied in every other case.

Molecule | Category Label
CS(=O)(=O)Nc1cccc(NS(C)(=O)=O)c1 | Not satisfied
CCC1(C)CCC(=O)NC1=O (stereo not drawn) | Not satisfied
OC(O)C(Cl)(Cl)Cl | Not satisfied
CCCCS | Satisfied
NC(=O)Nc1cccc(NC(N)=O)c1 | Not satisfied
Nc1ncc2ncn(COCCO)c2n1 | Not satisfied
O=C(O)COc1ccc(F)c(I)c1 | Satisfied
FC(F)(F)c1ccccc1 | Satisfied
CC(=O)Nc1ccc2oc(C)c(C)c(=O)c2c1 | Not satisfied
COc1cc2c(c(OC)c1OC)-c1ccc(O)c(=O)cc1[C@@H](N)CC2 | Not satisfied
CCCCOC(=O)c1ccc(C(=O)OCCCC)cc1 | Satisfied
CCCCCCCCN(CCCCCCCC)N=Cc1c2c(O)c3c(O)c(C)c4c(c3c1O)C(=O)C(C)(O/C=C\C(OC)C(C)C(OC(C)=O)C(C)C(O)C(C)C(O)C(C)/C=C\C=C(\C)C(=O)N2)O4 (stereo not drawn) | Satisfied
C1=Cc2ccccc2C1 | Satisfied
O=c1[nH]cc(Br)c(=O)[nH]1 | Not satisfied
CC(Cl)(Cl)Cl | Satisfied
C=C(C)C | Satisfied
CC(C)C(NC(=O)OCc1ccccc1)C(=O)NC(Cc1ccc(O)cc1)C(=O)O (stereo not drawn) (Cbz-Val-Tyr-OH; configuration not given here) | Satisfied
ClC(Cl)(Cl)c1ccc(C(Cl)(Cl)Cl)cc1 | Satisfied
ClCCOCCCl | Not satisfied
CCOC(=O)CNCCCCCSc1c2[nH]cnc2nc[n+]1[O-] | Not satisfied
O=[N+]([O-])Cc1ccccc1 | Not satisfied
CCOC(=O)C(=Cc1ccc(Br)cc1)C(=O)OCC | Satisfied
